Test system: Schistosoma mansoni adult schistosomes (49-day-old)
Test: effect on adult schistosomes (49-day-old) in mice
Assay type: in vivo
Conditions: single 600 mg/kg per os
Binary classification by % reduction of adult worms growth at day 49 after per os application of 600 mg/kg, TWR (%), with 20% as an inclusive lower bound for Condition met; all other cases are Condition not met.

Please review the following examples before continuing.
>>> category("Cc1ccc(S(=O)(=O)O)cc1.NC[C@H]1CC[C@]2(CC1)OOC1(O2)C2CC3CC(C2)CC1C3 (some centres unmarked) [OZ207]")
"Condition not met"
>>> category("C1COC2(CCC3(CC2)OOC2(O3)C3CC4CC(C3)CC2C4)O1 (centres unmarked) [OZ10]")
"Condition met"
>>> category("CC(C)(N)CNC(=O)C[C@H]1CC[C@]2(CC1)OO[C@]1(O2)C2CC3CC(C2)CC1C3 [OZ277]")
"Condition not met"
>>> category("O=C(O)CC1CCC2(CC1)OOC1(O2)C2CC3CC(C2)CC1C3 (centres unmarked) [OZ78]")
"Condition not met"

Now turn to the next compound.
QUERY: Given the entry Cc1ccc(S(=O)(=O)O)cc1.O=C(C[C@H]1CC[C@]2(CC1)OO[C@]1(O2)C2CC3CC(C2)CC1C3)N1CCNCC1 [OZ279] , answer whether its % reduction of adult worms growth at day 49 after per os application of 600 mg/kg, TWR (%) meets or surpasses 20%.
RESULT: Condition met

###

Tested on: ANKA strain of P. berghei
Assay: single dose STI in vivo screen in infected mice
Parameters: species or system Plasmodium berghei
Conditions: percent reduction in parasitemia day 3 post-infection; single 10 mg/kg po in 3% ethanol and 7% Tween 80; mice; 10 mg/kg
Consider the cut-off 20%. If the recorded Activity (%) po is strictly smaller, the label is true (1); if not, the label is false (0).

Below are worked cases with known answers.
>>> category("OC12CC3CC(C1)C1(OOC4(CCC5(CC4)OCCO5)O1)C(C3)C2 (centres unmarked) [OZ153]")
"true (1)"
>>> category("O=C(O)C1CCC2(CC1)OOC1(O2)C2CC3CC(C2)CC1C3 (centres unmarked) [OZ72]")
"false (0)"
>>> category("OC12CC3CC(C1)C1(OOC4(CCC5(CC4)OCCO5)O1)C(C3)C2 (centres unmarked) [OZ152]")
"true (1)"
>>> category("O=C(O)C1CCC2(CC1)OOC1(O2)C2CC3CC(C2)CC1C3 (centres unmarked) [OZ71]")
"false (0)"

Now let's try a different one.
QUERY: is_below(Activity (%) po, 20%) for NC[C@H]1CC[C@]2(CC1)OOC1(O2)C2CC3CC(C2)CC1C3 (some centres unmarked) [OZ181] ?
RESULT: false (0)

###

Tested on: ANKA strain of P. berghei
Experiment: single dose STI in vivo screen in infected mice
Design: species or system Plasmodium berghei
Conditions: single 10 mg/kg sc in 3% ethanol and 7% Tween 80; untreated control 5.6 ± 0.3
Classification field: enter Criterion met for Survival (days) sc values not below 9 days, Criterion not met for values below it.

Check out these entries, answers already filled in.
>>> category("NC(=O)NC[C@H]1CC[C@]2(CC1)OOC1(O2)C2CC3CC(C2)CC1C3 (stereo partly drawn)")
"Criterion met"
>>> category("O=C(O)c1ccc([C@H]2CC[C@]3(CC2)OOC2(O3)C3CC4CC(C3)CC2C4)cc1 (stereo partly drawn)")
"Criterion not met"
>>> category("C1C2CC3CC1CC(C2)C31OO[C@]2(CC[C@@H](CN(C[C@H]3CC[C@]4(CC3)OOC3(O4)C4CC5CC(C4)CC3C5)C3CC3)CC2)O1 (stereo partly drawn)")
"Criterion not met"
>>> category("OC1(c2ccc(F)cc2)CCC2(CC1)OOC1(O2)C2CC3CC(C2)CC1C3 (stereo not drawn)")
"Criterion not met"
>>> category("O=C1CC2CC(C1)CC1(C2)OOC2(O1)C1CC3CC(C1)CC2C3 (stereo not drawn)")
"Criterion met"

QUERY: Please tell me: is the compound O=C1CNC(=O)N1C[C@H]1CC[C@]2(CC1)OOC1(O2)C2CC3CC(C2)CC1C3 (stereo partly drawn) at or over 9 days in terms of Survival (days) sc?
RESULT: Criterion met

QUERY: Form field: Survival (days) sc at least 9 days? Entry: O=C(NC[C@H]1CC[C@]2(CC1)OOC1(O2)C2CC3CC(C2)CC1C3)c1ccncc1 (stereo partly drawn)
RESULT: Criterion met

QUERY: Exam item: decide whether the reported Survival (days) sc for O=C(OC[C@H]1CC[C@]2(CC1)OOC1(O2)C2CC3CC(C2)CC1C3)N1CCN(c2ccccc2)CC1 (stereo partly drawn) is at least 9 days.
RESULT: Criterion not met

QUERY: Form field: Survival (days) sc at least 9 days? Entry: c1csc(NC[C@H]2CC[C@]3(CC2)OOC2(O3)C3CC4CC(C3)CC2C4)n1 (stereo partly drawn)
RESULT: Criterion met

QUERY: Record CC(C)(C)COC(=O)C1CCC2(CC1)OOC1(O2)C2CC3CC(C2)CC1C3 (stereo not drawn) ; criterion: Survival (days) sc no lower than 9 days. Met?
RESULT: Criterion not met

QUERY: Does the compound c1ncn(C[C@H]2CC[C@]3(CC2)OOC2(O3)C3CC4CC(C3)CC2C4)n1 (stereo partly drawn) have recorded Survival (days) sc that is 9 days or more?
RESULT: Criterion not met

QUERY: Reported Survival (days) sc reaches at least 9 days for c1ccc2c(c1)OCCC21OOC2(O1)C1CC3CC(C1)CC2C3 (stereo not drawn) ?
RESULT: Criterion met

QUERY: Confirm if Survival (days) sc reported for the compound CN(C)S(=O)(=O)N1CCC2(CC1)OOC1(O2)C2CC3CC(C2)CC1C3 (stereo not drawn) is 9 days or above.
RESULT: Criterion not met

QUERY: Identify whether the reported Survival (days) sc of the following compound is 9 days or greater: N#CC1(c2ccccc2)CCC2(CC1)OOC1(O2)C2CC3CC(C2)CC1C3 (stereo not drawn)
RESULT: Criterion met

QUERY: Form field: Survival (days) sc at least 9 days? Entry: O=C(CCl)N1CCC2(CC1)OOC1(O2)C2CC3CC(C2)CC1C3 (stereo not drawn)
RESULT: Criterion not met

QUERY: Check the entry CCCCCCCCS(=O)(=O)N1CCC2(CC1)OOC1(O2)C2CC3CC(C2)CC1C3 (stereo not drawn) : does Survival (days) sc equal or exceed 9 days?
RESULT: Criterion not met

QUERY: // inclusive: Survival (days) sc at least 9 days? input: NC(=O)N[C@H]1CC[C@]2(CC1)OOC1(O2)C2CC3CC(C2)CC1C3 (stereo partly drawn)
RESULT: Criterion not met
